Values were extracted from patent USRE47150.

Study system: recombinant TFPI of the FXa restoring assay (human, mouse or rat; not specified for Tables 9 and 10)
Sequence (P10646 29-304): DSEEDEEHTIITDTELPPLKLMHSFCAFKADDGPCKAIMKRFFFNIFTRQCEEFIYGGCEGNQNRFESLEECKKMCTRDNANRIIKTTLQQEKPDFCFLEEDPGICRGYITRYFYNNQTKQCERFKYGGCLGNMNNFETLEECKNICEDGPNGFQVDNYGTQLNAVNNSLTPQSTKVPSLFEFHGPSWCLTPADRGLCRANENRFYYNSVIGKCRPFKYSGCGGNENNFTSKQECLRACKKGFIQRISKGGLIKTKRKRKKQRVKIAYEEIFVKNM
Assay text: cell-based or functional assay
A collection of binders and their measured Improvement vs parental, FXa restoring assay
The answer is to be given in fold; state only the numeric part.

// below: answered binders
| Binder | Recorded result |
| --- | --- |
| 2A8 HC_S31P (Fab, V domains shown, also called 2A8-2) VH: QVQLVESGGGLVQPGGSLRLSCAASGFTFRPYGMSWVRQAPGKGLEWVSSIRGSSSSTYYADSVKGRFTISRDNSKNTLYLQMNSLRAEDTAVYYCARKYRYWFDYWGQGTLVTVSS VL: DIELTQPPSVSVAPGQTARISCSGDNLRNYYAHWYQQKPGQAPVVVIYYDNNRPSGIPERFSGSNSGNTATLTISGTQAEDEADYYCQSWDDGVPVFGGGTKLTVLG | 1.7 |
| 2A8 HC_S54F (Fab, V domains shown, also called 2A8-7) VH: QVQLVESGGGLVQPGGSLRLSCAASGFTFRSYGMSWVRQAPGKGLEWVSSIRGFSSSTYYADSVKGRFTISRDNSKNTLYLQMNSLRAEDTAVYYCARKYRYWFDYWGQGTLVTVSS VL: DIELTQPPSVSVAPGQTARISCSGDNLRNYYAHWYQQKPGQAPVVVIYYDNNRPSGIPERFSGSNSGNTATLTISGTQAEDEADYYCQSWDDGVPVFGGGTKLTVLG | 2 |

Q: Would you kindly share the measured Improvement vs parental, FXa restoring assay for 2A8 LC_D91K (Fab, V domains shown, also called 2A8-15) VH: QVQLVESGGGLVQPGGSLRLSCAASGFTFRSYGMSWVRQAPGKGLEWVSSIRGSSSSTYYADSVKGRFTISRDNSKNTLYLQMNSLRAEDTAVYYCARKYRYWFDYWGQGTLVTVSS VL: DIELTQPPSVSVAPGQTARISCSGDNLRNYYAHWYQQKPGQAPVVVIYYDNNRPSGIPERFSGSNSGNTATLTISGTQAEDEADYYCQSWKDGVPVFGGGTKLTVLG ?
A: 1.9
